FYI, the data here is from patent US20250145711A1.

molecular target: T1, TRCW5 antigen (CD3δε-Fc-Avi) (biotinylated (site not stated)); experiment: binding after heat
T1 construct: also called recombinant CD3
T1 sequence (chain, as listed by the source mutant limits assumed): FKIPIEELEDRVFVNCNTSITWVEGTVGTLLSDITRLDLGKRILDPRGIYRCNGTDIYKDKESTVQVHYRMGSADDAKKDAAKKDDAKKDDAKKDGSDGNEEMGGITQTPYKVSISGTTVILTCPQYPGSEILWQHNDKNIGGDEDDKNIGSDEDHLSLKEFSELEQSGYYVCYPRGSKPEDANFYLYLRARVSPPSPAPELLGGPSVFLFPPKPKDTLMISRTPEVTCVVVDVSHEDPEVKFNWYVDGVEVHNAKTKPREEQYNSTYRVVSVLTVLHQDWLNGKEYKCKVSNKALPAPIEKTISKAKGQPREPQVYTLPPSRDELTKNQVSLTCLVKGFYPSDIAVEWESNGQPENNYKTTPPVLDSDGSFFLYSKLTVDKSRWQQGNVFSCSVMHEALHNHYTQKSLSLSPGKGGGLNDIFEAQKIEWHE
Provide the reported % Retained 60° C. of each item.
Write down the numeric answer in % and omit the unit.

Sample CD3B2089 N106R (scFv) scFv: QVQLVQSGAEVKKPGSSVKVSCKASGYTFTRSTMHWVRQAPGQGLEWMGYINPSSAYTNYAQKFQGRVTLTADKSTSTAYMELSSLRSEDTAVYYCASPQVHYDYRGFPYWGQGTLVTVSSGGSEGKSSGSGSESKSTGGSEIVLTQSPATLSASPGERVTLSCSASSSVSYMNWYQQKPGQAPRRWIYDSSKLASGVPARFSGSGSGRDYTLTISSLEPEDFAVYYCQQWSRNPPTFGGGTKVEIK — what was its % Retained 60° C.?
103

Find the recorded % Retained 60° C. belonging to CD3B2030 N106S (scFv) scFv: QVQLVQSGAEVKKPGSSVKVSCKASGYTFTRSTMHWVKQAPGQGLEWIGYINPSSAYTNYNQKFQGRVTLTADKSTSTAYMELSSLRSEDTAVYYCASPQVHYDYSGFPYWGQGTLVTVSSGGSEGKSSGSGSESKSTGGSEIVLTQSPATLSASPGERVTLSCSASSSVSYMNWYQQKPGQAPRRWIYDSSKLASGVPARFSGSGSGRDYTLTISSLEPEDFAVYYCQQWSRNPPTFGGGTKVEIK and report it.
19

// query % Retained 60° C. value for entry CD3B2030 N106F (scFv) scFv: QVQLVQSGAEVKKPGSSVKVSCKASGYTFTRSTMHWVKQAPGQGLEWIGYINPSSAYTNYNQKFQGRVTLTADKSTSTAYMELSSLRSEDTAVYYCASPQVHYDYFGFPYWGQGTLVTVSSGGSEGKSSGSGSESKSTGGSEIVLTQSPATLSASPGERVTLSCSASSSVSYMNWYQQKPGQAPRRWIYDSSKLASGVPARFSGSGSGRDYTLTISSLEPEDFAVYYCQQWSRNPPTFGGGTKVEIK
83.3
